test system: RH-1; assay: cells; format: functional, cell-based, Homo sapiens; conditions: rh-1;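 further: growth inhibition of human RH-1 cells, read out with a cell viability assay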
Description: SANGER: Inhibition of human RH-1 cell growth in a cell viability assay.
Where a SMILES comes first, the peptide text is derived from it. The star is where a group is joined. Cbz = O=C(OCc1ccccc1)*
experimental endpoint: IC50

For CC(C)C[C@@H](C=O)NC(=O)[C@H](CC(C)C)NC(=O)[C@H](CC(C)C)NC(=O)OCc1ccccc1 [MG-132] (Cbz-Leu-Leu-Leu-aldehyde) , what is its reported IC50?
> 1000 nM

* * *

test system: PC-14; assay: cells; format: functional, cell-based; details: Homo sapiens;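 further: cell viability assay measuring inhibition of PC-14 cell growth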
Description: SANGER: Inhibition of human PC-14 cell growth in a cell viability assay.
pIC50: −log10 of the molar value.
experimental endpoint: pIC50

Need pIC50 of Cc1ccc(-n2nc(C(C)(C)C)cc2NC(=O)Nc2ccc(OCCN3CCOCC3)c3ccccc23)cc1 [DORAMAPIMOD] , thanks.
< 5.00

Could you share which pIC50 value was measured for CS(=O)(=O)N1CCN(Cc2cc3nc(-c4cccc5[nH]ncc45)nc(N4CCOCC4)c3s2)CC1 [PICTILISIB] ?
5.43

Which pIC50 value belongs to OC[C@H](Cc1ccccc1)Nc1nc(Oc2ccc3c(c2)CCC3)nc2c1ncn2Cc1ccc(-c2ccccc2)cc1 ?
< 4.99

Look up pIC50 for this compound: NC(=O)c1ccc(N(C(N)=O)c2c(F)cccc2F)nc1-c1ccc(F)cc1F [VX-702]
< 5.70

I would be grateful if you could share the reported pIC50 for Cc1ccc(C(=O)Nc2ccc(CN3CCN(C)CC3)c(C(F)(F)F)c2)cc1C#Cc1cnc2cccnn12 [PONATINIB] .
< 6.29

Any idea what its pIC50 is? The compound is COC(=O)[C@H](CCSC)NC(=O)c1ccc(NC[C@@H](N)CS)cc1-c1ccccc1
< 5.99

Could you tell me which pIC50 is on file for CC1=C(/C=C/C(C)=C/C=C/C(C)=C/C(=O)O)C(C)(C)CCC1 [TRETINOIN] ?
< 5.00

For the compound shown here, C/C(=C\c1csc(C)n1)[C@@H]1C[C@@H]2O[C@]2(C)CCC[C@H](C)[C@H](O)[C@@H](C)C(=O)C(C)(C)[C@@H](O)CC(=O)O1 [PATUPILONE] , give the reported pIC50.
8.38

Request the reported pIC50 associated with CC1(C)CCC(c2ccc(Cl)cc2)=C(CN2CCN(c3ccc(C(=O)NS(=O)(=O)c4ccc(N[C@H](CCN5CCOCC5)CSc5ccccc5)c(S(=O)(=O)C(F)(F)F)c4)cc3)CC2)C1 [NAVITOCLAX]
< 5.70

* * *

I'd be grateful if you could share measured IC50 for these entries.
test system: MeWo; test: cells; type: functional, cell-based; conditions: Homo sapiens;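 further: growth inhibition of MeWo cells, determined by a cell viability readout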
Description: SANGER: Inhibition of human Mewo cell growth in a cell viability assay.

// lookup IC50 for OC[C@H](Cc1ccccc1)Nc1nc(Oc2ccc3c(c2)CCC3)nc2c1ncn2Cc1ccc(-c2ccccc2)cc1
> 10.2 µM

Please give the measured IC50 for this compound: O=C1NC(=O)c2c1c(-c1ccccc1Cl)cc1[nH]c3ccc(O)cc3c21
> 2 µM

Any idea what IC50 was measured for O=S(=O)(O)c1ccc2cc(/N=N/c3cc(S(=O)(=O)O)c4cccnc4c3O)ccc2c1 ?
> 16 µM

Given the compound CN(C)CCOc1ccc(-c2nc(-c3ccncc3)c(-c3ccc4c(c3)CC/C4=N\O)[nH]2)cc1 , what is its reported IC50?
> 5 µM
